- TARGET OR TEST SYSTEM: Cyclin-dependent kinase 1/cyclin B1 (Homo sapiens)
- METHOD: Inhibition of CDK1/Cyclin B1 expressed in Sf9 cells-baculovirus system assessed as retinoblastoma susceptibility gene product phosphorylation
pIC50: −log10 of the molar value.
Collected pIC50 values appear next to each entry.

Before answering, review these 3 worked examples.
# INPUT SMILES, pIC50
data = [
    ("O=C1NC(=O)c2ccccc2/C1=C/Nc1ccc(N2CCOCC2)cc1", "< 4.54"),
    ("O=C1NC(=O)c2ccc(-c3ccccc3)cc2/C1=C/Nc1ccc(CN2CCCCC2)cc1", "< 4.30"),
    ("CN1CCN(c2ccc(N/C=C3\\C(=O)NC(=O)c4ccc(-c5ccsc5)cc43)cc2)CC1", "< 4.30"),
]

Under Cyclin-dependent kinase 1/cyclin B1 (Homo sapiens), report pIC50 for O=C1NC(=O)c2ccc(I)cc2/C1=C/Nc1ccc(CN2CCCCC2)cc1
< 4.30

Under Cyclin-dependent kinase 1/cyclin B1 (Homo sapiens), report pIC50 for CC(=O)Nc1ccc2c(c1)/C(=C/Nc1ccc(N3CCN(C)CC3)cc1)C(=O)NC2=O
4.86

* * *

- METHOD: Aqueous solubility at pH 7.4
- Type: physicochemical
Collected log10(solubility) values appear next to each entry.
Lab note - solubility converted to log10 from values in µg/mL.

# COMPOUND, log10(solubility)
data = [
    ("C[C@@H]1CN(c2ccc(N/C=C3\\C(=O)NC(=O)c4ccc(I)cc43)cc2)C[C@H](C)N1C", 0.60),
    ("CN1CC2CC1CN2c1ccc(N/C=C2\\C(=O)NC(=O)c3ccc(I)cc32)cc1 (stereo unspecified)", 1.26),
    ("C[C@@H]1CN(c2ccc(N/C=C3\\C(=O)NC(=O)c4ccc(I)cc43)cc2)[C@@H](C)CN1C", 0.60),
    ("CN1CCN(c2ccc(N/C=C3\\C(=O)NC(=O)c4ccc(I)cc43)cc2)CC1", 0.00),
    ("C[C@@H]1CN(c2ccc(N/C=C3\\C(=O)NC(=O)c4ccc(I)cc43)cc2)C[C@H](C)N1", 1.08),
]

Turning now to a further compound:
Please list log10(solubility) recorded for the compound CC1CN(c2ccc(N/C=C3\C(=O)NC(=O)c4ccc(I)cc43)cc2)CCN1C (stereo unspecified)
0.70

* * *

Collected pIC50 values appear next to each entry.
- TARGET OR TEST SYSTEM: Cyclin-dependent kinase 4/cyclin D1 (Homo sapiens)
- Sequence (P11802 whole entry): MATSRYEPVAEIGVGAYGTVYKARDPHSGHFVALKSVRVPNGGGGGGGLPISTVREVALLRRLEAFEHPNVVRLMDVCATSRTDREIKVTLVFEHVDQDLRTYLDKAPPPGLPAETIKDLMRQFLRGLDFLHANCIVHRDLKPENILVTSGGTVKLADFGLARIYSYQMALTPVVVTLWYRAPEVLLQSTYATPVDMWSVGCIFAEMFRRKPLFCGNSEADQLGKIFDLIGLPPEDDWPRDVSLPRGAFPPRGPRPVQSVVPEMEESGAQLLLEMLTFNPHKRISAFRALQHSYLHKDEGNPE
- Sequence (P24385 whole entry, further chain): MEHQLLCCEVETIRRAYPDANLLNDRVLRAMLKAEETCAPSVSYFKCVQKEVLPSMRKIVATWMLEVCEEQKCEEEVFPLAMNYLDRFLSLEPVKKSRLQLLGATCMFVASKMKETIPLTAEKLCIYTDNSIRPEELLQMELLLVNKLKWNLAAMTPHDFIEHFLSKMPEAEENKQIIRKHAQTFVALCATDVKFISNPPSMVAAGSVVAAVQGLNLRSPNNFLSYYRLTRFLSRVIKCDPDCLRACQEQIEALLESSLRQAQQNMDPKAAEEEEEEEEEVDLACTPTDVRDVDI
- METHOD: Inhibition of CDK4/cyclin D1 expressed in Sf9 cells-baculovirus system assessed as retinoblastoma susceptibility gene product phosphorylation
Reminder that pIC50 means the negative base-10 logarithm of the concentration expressed in mol/L.

Before answering, review these 8 worked examples.
# COMPOUND, TARGET OR TEST SYSTEM, pIC50
measured = [
    ("CN1CC2CC1CN2c1ccc(N/C=C2\\C(=O)NC(=O)c3ccc(I)cc32)cc1 (stereo not drawn)", "Cyclin-dependent kinase 4/cyclin D1 (Homo sapiens)", 6.49),
    ("O=C1NC(=O)c2ccc(-n3cccc3)cc2/C1=C/Nc1ccc(CN2CCCCC2)cc1", "Cyclin-dependent kinase 4/cyclin D1 (Homo sapiens)", 6.85),
    ("CN1CCN(c2cnc(N/C=C3\\C(=O)NC(=O)c4ccc(-c5ccoc5)cc43)cn2)CC1", "Cyclin-dependent kinase 4/cyclin D1 (Homo sapiens)", 5.90),
    ("COc1ccc(-c2ccc3c(c2)/C(=C/Nc2ccc(CN4CCCCC4)cc2)C(=O)NC3=O)cc1", "Cyclin-dependent kinase 4/cyclin D1 (Homo sapiens)", 6.89),
    ("CN1CCN(c2ccc(N/C=C3\\C(=O)NC(=O)c4cc(Br)ccc43)cc2)CC1", "Cyclin-dependent kinase 4/cyclin D1 (Homo sapiens)", 4.92),
    ("CN1CCN(c2ccc(N/C=C3\\C(=O)NC(=O)c4ccc(-c5ccco5)cc43)cc2)CC1", "Cyclin-dependent kinase 4/cyclin D1 (Homo sapiens)", 6.48),
    ("O=C1NC(=O)c2ccc(Br)cc2/C1=C/Nc1ccc(CN2CCCCC2)cc1", "Cyclin-dependent kinase 4/cyclin D1 (Homo sapiens)", 5.96),
    ("O=C1NC(=O)c2ccc(N3CCCCC3)cc2/C1=C/Nc1ccc(CN2CCCCC2)cc1", "Cyclin-dependent kinase 4/cyclin D1 (Homo sapiens)", 6.00),
]

Please list pIC50 recorded for the compound O=C1NC(=O)c2ccc(-c3ccsc3)cc2/C1=C/Nc1ccc(CN2CCCCC2)cc1
6.89

Please list pIC50 recorded for the compound CC(=O)Nc1ccc2c(c1)/C(=C/Nc1ccc(N3CCN(C)CC3)cc1)C(=O)NC2=O
4.96

Please list pIC50 recorded for the compound O=C1NC(=O)c2ccc(-c3cccnc3)cc2/C1=C/Nc1ccc(CN2CCCCC2)cc1
7.30

Please list pIC50 recorded for the compound O=C1NC(=O)c2ccccc2/C1=C/Nc1ccc(CN2CCOCC2)cc1
5.00

Please list pIC50 recorded for the compound CN1CCN(c2ccc(N/C=C3\C(=O)NC(=O)c4ccc(N5CCCCC5)cc43)cc2)CC1
5.79

Please list pIC50 recorded for the compound C[C@@H]1CN(c2ccc(N/C=C3\C(=O)NC(=O)c4ccc(I)cc43)cc2)[C@@H](C)CN1C
5.52

Please list pIC50 recorded for the compound CN1CCN(c2ccc(N/C=C3\C(=O)NC(=O)c4ccc(-c5ccoc5)cc43)cn2)CC1
6.96

Please list pIC50 recorded for the compound CC(=O)Nc1ccc2c(c1)/C(=C/Nc1ccc(CN3CCCCC3)cc1)C(=O)NC2=O
5.46

* * *

Collected IC50 values appear next to each entry.
- TARGET OR TEST SYSTEM: Cyclin-dependent kinase 1/cyclin B1 (Homo sapiens, UniProt P06493)
- Sequence (P06493 whole entry): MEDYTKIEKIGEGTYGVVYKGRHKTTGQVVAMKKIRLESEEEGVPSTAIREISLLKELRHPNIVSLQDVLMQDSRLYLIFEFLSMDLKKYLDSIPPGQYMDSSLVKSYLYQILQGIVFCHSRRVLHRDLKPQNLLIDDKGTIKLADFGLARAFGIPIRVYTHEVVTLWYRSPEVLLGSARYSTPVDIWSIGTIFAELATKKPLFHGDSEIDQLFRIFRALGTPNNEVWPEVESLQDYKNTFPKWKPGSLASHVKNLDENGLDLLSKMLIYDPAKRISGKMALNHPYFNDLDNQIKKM
- Sequence (P14635 whole entry, further chain): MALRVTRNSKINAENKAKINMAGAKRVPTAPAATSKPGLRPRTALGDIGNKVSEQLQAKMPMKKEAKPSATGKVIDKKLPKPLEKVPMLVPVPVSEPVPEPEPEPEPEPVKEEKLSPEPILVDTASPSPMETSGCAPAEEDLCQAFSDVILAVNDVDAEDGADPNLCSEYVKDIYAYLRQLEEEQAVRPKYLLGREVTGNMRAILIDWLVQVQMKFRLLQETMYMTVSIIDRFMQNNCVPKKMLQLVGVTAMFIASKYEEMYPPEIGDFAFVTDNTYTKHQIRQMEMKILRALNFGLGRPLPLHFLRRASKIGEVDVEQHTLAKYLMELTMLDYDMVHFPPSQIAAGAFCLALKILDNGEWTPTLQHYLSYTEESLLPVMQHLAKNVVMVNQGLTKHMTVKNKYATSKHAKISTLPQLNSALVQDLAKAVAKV
- METHOD: Inhibition of CDK1/Cyclin B1 expressed in Sf9 cells-baculovirus system assessed as retinoblastoma susceptibility gene product phosphorylation

Before answering, review these 2 worked examples.
# INPUT SMILES, IC50
measured = [
    ("C[C@@H]1CN(c2ccc(N/C=C3\\C(=O)NC(=O)c4ccc(I)cc43)cc2)C[C@H](C)N1", "> 50 µM"),
    ("CN1CCN(c2ccc(N/C=C3\\C(=O)NC(=O)c4ccc(-c5ccoc5)cc43)cn2)CC1", "> 50 µM"),
]

Turning now to a further compound:
Please list IC50 recorded for the compound O=C1NC(=O)c2ccc(N3CCOCC3)cc2/C1=C/Nc1ccc(CN2CCCCC2)cc1
> 50 µM

* * *

- TARGET OR TEST SYSTEM: Cyclin-dependent kinase 2 (Homo sapiens)
- METHOD: Inhibition of CDK2/cyclin E expressed in Sf9 cells-baculovirus system assessed as retinoblastoma susceptibility gene product phosphorylation
Collected IC50 values appear next to each entry.
Entry rule: numbers only, all in µM.

Please list IC50 recorded for the molecule O=C1NC(=O)c2ccccc2/C1=C/Nc1ccc(CN2CCOCC2)cc1
21

Please list IC50 recorded for the molecule O=C1NC(=O)c2ccccc2/C1=C/Nc1ccc(CN2CCCCC2)cc1
19.6

* * *

- TARGET OR TEST SYSTEM: Cyclin-dependent kinase 1/cyclin B1 (Homo sapiens)
- METHOD: Inhibition of CDK1/Cyclin B1 expressed in Sf9 cells-baculovirus system assessed as retinoblastoma susceptibility gene product phosphorylation
pIC50: −log10 of the molar value.
Collected pIC50 values appear next to each entry.

# COMPOUND, pIC50
records = [
    ("O=C1NC(=O)c2ccccc2/C1=C/Nc1ccc(CN2CCOCC2)cc1", "< 4.57"),
    ("CN1CCN(c2ccc(N/C=C3\\C(=O)NC(=O)c4ccccc43)cc2)CC1", "< 4.55"),
    ("CN1CCN(c2ccc(N/C=C3\\C(=O)NC(=O)c4ccc(Br)cc43)cc2)CC1", "< 4.30"),
]

Please list pIC50 recorded for the compound O=C1NC(=O)c2ccc(-n3cccc3)cc2/C1=C/Nc1ccc(CN2CCCCC2)cc1
< 4.30

* * *

Collected pIC50 values appear next to each entry.
- TARGET OR TEST SYSTEM: Cyclin-dependent kinase 4/cyclin D1 (Homo sapiens)
- METHOD: Inhibition of CDK4/cyclin D1 expressed in Sf9 cells-baculovirus system assessed as retinoblastoma susceptibility gene product phosphorylation
Reminder that pIC50 means the negative base-10 logarithm of the concentration expressed in mol/L.

Before answering, review these 2 worked examples.
# INPUT SMILES, RECORDED NUMBER
records = [
    ("CN1CCN(c2ccc(N/C=C3\\C(=O)NC(=O)c4ccccc43)cc2)CC1", 5.39),
    ("CN1CCN(c2ccc(N/C=C3\\C(=O)NC(=O)c4ccc(-c5ccccc5)cc43)cc2)CC1", 6.41),
]

Please list pIC50 recorded for the compound CN1CCN(c2ccc(N/C=C3\C(=O)NC(=O)c4ccc(/C=C/c5ccccc5)cc43)cc2)CC1
4.84

Please list pIC50 recorded for the compound O=C1NC(=O)c2ccc(-c3ccccc3)cc2/C1=C/Nc1ccc(CN2CCCCC2)cc1
6.49

Please list pIC50 recorded for the compound O=C1NC(=O)c2ccc([N+](=O)[O-])cc2/C1=C/Nc1ccc(CN2CCCCC2)cc1
4.82

Please list pIC50 recorded for the compound CN1CCN(c2ccc(N/C=C3\C(=O)NC(=O)c4ccc(-n5cccc5)cc43)cc2)CC1
6.85

Please list pIC50 recorded for the compound COc1ccc2c(c1)/C(=C/Nc1ccc(CN3CCCCC3)cc1)C(=O)NC2=O
5.70

Please list pIC50 recorded for the compound CN1CCN(c2ccc(N/C=C3\C(=O)NC(=O)c4ccc(-c5ccsc5)cc43)cc2)CC1
7.00

Please list pIC50 recorded for the compound O=C1NC(=O)c2ccccc2/C1=C/Nc1ccc(CN2CCCCC2)cc1
5.48

Please list pIC50 recorded for the compound C[C@@H]1CN(c2ccc(N/C=C3\C(=O)NC(=O)c4ccc(I)cc43)cc2)C[C@H](C)N1
6.00
